Molecular target: TSPO (Homo sapiens, UniProt P30536, T147A)
Sequence (P30536 2-169 T147A): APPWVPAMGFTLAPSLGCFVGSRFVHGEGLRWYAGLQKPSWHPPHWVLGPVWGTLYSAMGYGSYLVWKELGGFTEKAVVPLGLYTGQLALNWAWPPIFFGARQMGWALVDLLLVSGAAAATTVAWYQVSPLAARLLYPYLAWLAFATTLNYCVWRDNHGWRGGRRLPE
Assay: Competition binding assay, unlabelled PBR28 displacing [3H]PK11195 in human platelet membranes
Design: from tissue
Settings: MABs (12/41 subjects), platelets, mean±SEM; read-out: Ki, two-site model, high affinity site
PROPERTY: pKi
API: returns pKi as number; meaning -log10 of concentration in mol/L.

Q: // fetch pKi given entry COc1ccccc1CN(C(C)=O)c1cnccc1Oc1ccccc1
Ans: 8.65

* * *

Target: TSPO (Homo sapiens)
Test: Competition binding assay, unlabelled PBR28 displacing [3H]PK11195 in human platelet membranes
Parameters: from tissue
Details: LABs (2/41 subjects), platelets, mean±SEM; read-out: Ki, single class of low affinity sites
PROPERTY: Ki (µM)
Please respond with the number in µM and leave the unit unwritten.

Q: // fetch Ki given entry COc1ccccc1CN(C(C)=O)c1cnccc1Oc1ccccc1 [PBR28]
Ans: 0.187

* * *

Tested on: TSPO
Assay: Competition binding with [3H]PK11195 in human brain (method of J Nucl Med 2011;52:24-32)
Conditions: relative to LAB = 1
If the reported ratio of specific signal, HAB equals or exceeds 10, assign 1. If not, assign -1.

Below are worked cases with known answers.
>  <MOLECULE>
CCN(CC)C(=O)Cc1c(-c2ccc(OCCCF)cc2)nc2ccc(Cl)cn12

>  <ASSIGNED LABEL>
-1

$$$$
>  <MOLECULE>
COc1ccc(OC)c(CN(C(=O)CF)c2ccccc2Oc2ccccc2)c1

>  <ASSIGNED LABEL>
1

$$$$
>  <MOLECULE>
CCN(CC)C(=O)C1CCCC2C1c1c(OC)cccc1N2CCF (centres unmarked)

>  <ASSIGNED LABEL>
1

$$$$

Q: Tell me whether ratio of specific signal, HAB is at least 10 here: CC(=O)N(Cc1ccccc1O[11CH3])c1cnccc1Oc1ccccc1
Ans: 1

Q: Tell me whether ratio of specific signal, HAB is at least 10 here: COc1ccc(OC)c(CN(C(C)=O)c2cc(F)ccc2Oc2ccccc2)c1
Ans: -1

* * *

Test system: TSPO
Experiment: Competition binding with [3H]PK11195 in human brain (method of J Nucl Med 2011;52:24-32)
Conditions: ratio of Ki LAB to Ki HAB
Each record here notes measured LAB/HAB.
Just the number, please, no unit after it.

>  <MOLECULE>
CCN(CC)C(=O)C1CCCC2C1c1c(OC)cccc1N2CCF (stereo not drawn)

>  <LAB/HAB>
11.8

$$$$
>  <MOLECULE>
COc1ccc(OC)c(CN(C(C)=O)c2cc(F)ccc2Oc2ccccc2)c1

>  <LAB/HAB>
4.7

$$$$
>  <MOLECULE>
CCN(CC)C(=O)Cc1c(-c2ccc(OCCCF)cc2)nc2ccc(Cl)cn12

>  <LAB/HAB>
4

$$$$
>  <MOLECULE>
CC(=O)N(Cc1ccccc1O[11CH3])c1cnccc1Oc1ccccc1

>  <LAB/HAB>
55

$$$$
>  <MOLECULE>
COc1ccc(OC)c(CN(C(=O)CF)c2ccccc2Oc2ccccc2)c1

>  <LAB/HAB>
17

$$$$

In the following, a different molecule is considered.
Q: // fetch LAB/HAB given entry CCN(Cc1ccccc1)C(=O)Cn1c(=O)n(C)c2cnc(-c3ccccc3)nc21
Ans: 12.6
